experimental-target: human C5a (Homo sapiens) (UniProt P01031)
Sequence: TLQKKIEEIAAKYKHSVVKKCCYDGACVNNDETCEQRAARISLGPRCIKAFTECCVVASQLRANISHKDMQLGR
assay: SPR
study-conditions: L-RNA; L-2'-deoxy dU7,dU28,dC38; 5' 40 kDa PEG; Biacore, HBS-EP, 37 C
measured-quantity: Kd (pM)

1. GCGAUGUGGUGGUGAAGGGUUGUUGGGUGUCGACGCACGC [NOX-D21 (NOX-D19001-2dU-1dC-020-5'40kDa-PEG)] ... 815

###

experimental-target: human C5a (Homo sapiens) (UniProt P01031)
Sequence: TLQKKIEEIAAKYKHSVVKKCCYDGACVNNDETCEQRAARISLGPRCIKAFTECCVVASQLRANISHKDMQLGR
assay: SPR
study-conditions: L-RNA; L-2'-deoxy dU9,dG16,dA17,dU30,dU32,dC40; Biacore, HBS-EP, 37 C
pKd: −log10 of the molar value.
measured-quantity: pKd

1) GCCUGAUGUGGUGGUGAAGGGUUGUUGGGUGUCGACGCACAGGC [NOX-D19001-6xDNA (D09-16-17-30-32-40)] ... 9.44

###

experimental-target: human C5a (Homo sapiens) (UniProt P01031)
Sequence: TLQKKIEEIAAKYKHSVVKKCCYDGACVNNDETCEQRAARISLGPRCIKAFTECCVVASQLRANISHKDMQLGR
assay: SPR
study-conditions: L-RNA; L-2'-deoxy dU7,dG14,dA15,dU28,dU30,dC38; 5' 40 kDa PEG; Biacore, HBS-EP, 37 C
pKd: −log10 of the molar value.
measured-quantity: pKd

1. GCGAUGUGGUGGUGAAGGGUUGUUGGGUGUCGACGCACGC [NOX-D20 (NOX-D19001-6xDNA-020-5'40kDa-PEG)] ... 9.52

###

experimental-target: human C5a (Homo sapiens) (UniProt P01031)
Sequence: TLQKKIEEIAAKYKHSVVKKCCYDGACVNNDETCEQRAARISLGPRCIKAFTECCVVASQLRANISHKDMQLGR
assay: SPR
study-conditions: L-RNA; L-2'-deoxy dU7,dG14,dA15,dU28,dU30,dC38; Biacore, HBS-EP, 37 C
pKd: −log10 of the molar value.
measured-quantity: pKd

1) GCGAUGUGGUGGUGAAGGGUUGUUGGGUGUCGACGCACGC [NOX-D20001 (NOX-D19001-6xDNA-020)] ... 9.52

###

experimental-target: human C5a (Homo sapiens)
Sequence: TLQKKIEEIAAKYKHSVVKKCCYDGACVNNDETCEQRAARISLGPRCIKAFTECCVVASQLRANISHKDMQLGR
assay: SPR
study-conditions: L-RNA; L-2'-deoxy dU7,dU28; stated as improved by more than factor 10 vs 11.3 nM of NOX-D19001-020; exact value in figure
measured-quantity: Kd

1) GCGAUGUGGUGGUGAAGGGUUGUUGGGUGUCGACGCACGC [NOX-D19001-2xDNA-020] ... < 1.13 nM

###

experimental-target: human C5a (Homo sapiens) (UniProt P01031)
Sequence: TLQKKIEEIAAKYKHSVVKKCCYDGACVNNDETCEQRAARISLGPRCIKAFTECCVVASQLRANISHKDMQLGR
assay: SPR
study-conditions: L-RNA; L-2'-deoxy dU9; Biacore, HBS-EP, 37 C
pKd: −log10 of the molar value.
measured-quantity: pKd

1) GCCUGAUGUGGUGGUGAAGGGUUGUUGGGUGUCGACGCACAGGC [NOX-D19001-D09] ... 9.15

###

experimental-target: human C5a (Homo sapiens) (UniProt P01031)
Sequence: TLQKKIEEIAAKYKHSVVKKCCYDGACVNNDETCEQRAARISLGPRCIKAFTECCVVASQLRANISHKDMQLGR
assay: SPR
study-conditions: L-RNA; L-2'-deoxy dU7,dU28,dU30,dC38; stated as improved by more than factor 10 vs 11.3 nM of NOX-D19001-020; exact value in figure
measured-quantity: Kd

1) GCGAUGUGGUGGUGAAGGGUUGUUGGGUGUCGACGCACGC [NOX-D19001-3dU-1dC-020] ... < 1.13 nM

###

experimental-target: human C5a (Homo sapiens) (UniProt P01031)
Sequence: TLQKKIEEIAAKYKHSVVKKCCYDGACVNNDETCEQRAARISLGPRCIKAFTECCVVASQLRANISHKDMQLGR
assay: SPR
study-conditions: L-RNA; L-2'-deoxy dU7,dU28,dC38; stated as improved by more than factor 10 vs 11.3 nM of NOX-D19001-020; exact value in figure
measured-quantity: Kd

1. GCGAUGUGGUGGUGAAGGGUUGUUGGGUGUCGACGCACGC [NOX-D21001 (NOX-D19001-2dU-1dC-020)] ... < 1.13 nM

###

experimental-target: human desArg-C5a (Homo sapiens) (UniProt P01031)
Sequence: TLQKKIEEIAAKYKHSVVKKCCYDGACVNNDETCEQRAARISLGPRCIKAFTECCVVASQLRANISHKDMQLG
assay: SPR
study-conditions: L-RNA; L-2'-deoxy dU7,dU28,dC38; 5' 40 kDa PEG; Biacore, HBS-EP, 37 C
measured-quantity: Kd (nM)

1) GCGAUGUGGUGGUGAAGGGUUGUUGGGUGUCGACGCACGC [NOX-D21 (NOX-D19001-2dU-1dC-020-5'40kDa-PEG)] ... 0.854

###

experimental-target: human C5a (Homo sapiens) (UniProt P01031)
Sequence: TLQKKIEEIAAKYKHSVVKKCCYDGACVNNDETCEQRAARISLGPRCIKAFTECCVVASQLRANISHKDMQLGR
assay: SPR
study-conditions: L-RNA; L-2'-deoxy dU5,dG12,dA13,dU26,dU28,dC36; terminal stretch truncated to one nucleotide, reduced activity; exact value in figure
pKd: −log10 of the molar value.
Each entry below carries its reported pKd.
measured-quantity: pKd

1. GAUGUGGUGGUGAAGGGUUGUUGGGUGUCGACGCACAGC [NOX-D19001-6xDNA-024] ... > 8.00
2. GAUGUGGUGGUGAAGGGUUGUUGGGUGUCGACGCACAGGC [NOX-D19001-6xDNA-010] ... > 8.00
3. GAUGUGGUGGUGAAGGGUUGUUGGGUGUCGACGCACGC [NOX-D19001-6xDNA-029] ... > 8.00

###

experimental-target: human C5a (Homo sapiens)
Sequence: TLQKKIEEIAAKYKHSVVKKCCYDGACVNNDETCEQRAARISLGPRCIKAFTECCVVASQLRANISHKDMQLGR
assay: SPR
study-conditions: L-RNA; L-2'-deoxy dU7,dU28,dU30; stated as improved by more than factor 10 vs 11.3 nM of NOX-D19001-020; exact value in figure
measured-quantity: Kd

1. GCGAUGUGGUGGUGAAGGGUUGUUGGGUGUCGACGCACGC [NOX-D19001-3xDNA-020] ... < 1.13 nM

Origin of measurements: patent US20180223285
